Taken from paper PMC3444172.

The entries below are paired with their reported Kcat (rate constant ES → E + P).
- targetDesc: M. tuberculosis lumazine synthase (recombinant homopentameric) (Mycobacterium tuberculosis)
- Sequence (P9WHE9 whole entry): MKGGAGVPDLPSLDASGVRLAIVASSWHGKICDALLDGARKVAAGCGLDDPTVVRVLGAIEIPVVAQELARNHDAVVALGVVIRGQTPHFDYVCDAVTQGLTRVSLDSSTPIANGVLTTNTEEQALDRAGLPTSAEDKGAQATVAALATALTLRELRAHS
- Format: biochemical
- conditionsUsed: pH 7

compoundStructureString | resultUnits | Kcat (rate constant ES → E + P)
CCC(=O)Nc1c(SC[C@H](O)[C@H](O)[C@H](O)CO)[nH]c(=O)[nH]c1=O | m^−1 | 0.65
C=C(C)C(=O)Nc1c(OC[C@H](O)[C@H](O)[C@H](O)CO)[nH]c(=O)[nH]c1=O | m^−1 | 0.57
C=C(C)C(=O)Nc1c(SC[C@H](O)[C@H](O)[C@H](O)CO)[nH]c(=O)[nH]c1=O | m^−1 | 0.92
